- assayProcedure: Equilibrium solubility in water and buffers (saturated shake-flask, 37 °C, 24 h)
- Format: physicochemical
- reportedConditions: aqueous buffer, thermodynamic from solid; pH 6.8, 37 °C; read-out: Solubility (concentration, mean ± SD)
assayEndpoint: solubility at 24 h (µg/mL)
Numbers only; they are read as µg/mL.

Query block: For CC(C)(C)[C@H](NC(=O)C(F)(F)F)C(=O)N1C[C@H]2[C@@H]([C@H]1C(=O)N[C@H](C#N)C[C@@H]1CCNC1=O)C2(C)C [NRV] , write its solubility at 24 h.
Result block: 958

###

- assayProcedure: Equilibrium solubility in water and buffers (saturated shake-flask, 37 °C, 24 h)
- Format: physicochemical
- reportedConditions: water, 37 °C; read-out: Solubility in water
assayEndpoint: solubility at 24 h (µg/mL)
The reply should be a number in µg/mL, with the unit left off.

Query block: Hello, please tell me recorded solubility at 24 h for this one: CC(C)(C)[C@H](NC(=O)C(F)(F)F)C(=O)N1C[C@H]2[C@@H]([C@H]1C(=O)N[C@H](C#N)C[C@@H]1CCNC1=O)C2(C)C
Result block: 953

###

- assayProcedure: Equilibrium solubility in water and buffers (saturated shake-flask, 37 °C, 24 h)
- Format: physicochemical
- reportedConditions: thermodynamic from solid; pH 1.2, 37 °C; read-out: Solubility (concentration, mean ± SD)
assayEndpoint: solubility at 24 h (mg/mL)
Give the value in mg/mL but do not write mg/mL after it.

Query block: Tell me solubility at 24 h reported for CC(C)(C)[C@H](NC(=O)C(F)(F)F)C(=O)N1C[C@H]2[C@@H]([C@H]1C(=O)N[C@H](C#N)C[C@@H]1CCNC1=O)C2(C)C [NRV]
Result block: 0.998

###

- assayProcedure: Solubility in organic solvents
- Assay type: physicochemical
- reportedConditions: ethyl acetate, organic solvent or mixture; read-out: Solubility in ethyl acetate (crude concentration)
assayEndpoint: solubility

Query block: Consider the compound CC(C)(C)[C@H](NC(=O)C(F)(F)F)C(=O)N1C[C@H]2[C@@H]([C@H]1C(=O)N[C@H](C#N)C[C@@H]1CCNC1=O)C2(C)C [NRV] and give its recorded solubility.
Result block: > 57 mg/mL

###

- assayProcedure: Equilibrium solubility in water and buffers (saturated shake-flask, 37 °C, 24 h)
- Assay type: physicochemical
- reportedConditions: aqueous buffer, thermodynamic from solid; pH 3.8, 37 °C; read-out: Solubility (concentration, mean ± SD)
assayEndpoint: solubility at 24 h (µg/mL)
Number only, in µg/mL; omit the unit.

Query block: In one line, give reported solubility at 24 h of the entry CC(C)(C)[C@H](NC(=O)C(F)(F)F)C(=O)N1C[C@H]2[C@@H]([C@H]1C(=O)N[C@H](C#N)C[C@@H]1CCNC1=O)C2(C)C [NRV] .
Result block: 975

###

- assayProcedure: Solubility in organic solvents
- Format: physicochemical
- reportedConditions: ethanol, organic solvent or mixture; read-out: Solubility in ethanol (crude concentration)
- Procedure: The solubility of NRV in organic solvents, including ethanol, propylene glycol, and ethyl acetate, was tested.
assayEndpoint: solubility

Query block: Query solubility for CC(C)(C)[C@H](NC(=O)C(F)(F)F)C(=O)N1C[C@H]2[C@@H]([C@H]1C(=O)N[C@H](C#N)C[C@@H]1CCNC1=O)C2(C)C
Result block: 16.5 to 33 mg/mL

###

- assayProcedure: Equilibrium solubility in water and buffers (saturated shake-flask, 37 °C, 24 h)
- Type: physicochemical
- reportedConditions: aqueous buffer, thermodynamic from solid; pH 2.0, 37 °C; read-out: Solubility (concentration, mean ± SD)
- Description: The solubility of active pharmaceutical ingredients (API) in water and buffers with various pH values (pH 1.2–pH 7.4) was investigated to guide formulation screening. The equilibrium solubility method was performed based on the saturated shake-flask solubility technique. […] The concentrations were quantified using HPLC. […]
assayEndpoint: solubility at 24 h (µg/mL)
Hi! Could you send only the number? It should be in µg/mL, unit omitted.

Query block: Give a short answer stating reported solubility at 24 h for CC(C)(C)[C@H](NC(=O)C(F)(F)F)C(=O)N1C[C@H]2[C@@H]([C@H]1C(=O)N[C@H](C#N)C[C@@H]1CCNC1=O)C2(C)C .
Result block: 983

All values here come from paper PMC10818454.
